- Assay Procedure: Noncompartmental plasma pharmacokinetics in phase 1b study
- Assay type: in vivo, human
- Test Conditions: human, plasma, po; Galunisertib 300 mg/day plus sorafenib, Cycle 1 Day 14, geometric mean (range), n = 3; read-out: t1/2 (converted)
Quantity Measured: half-life (h)
Answers are plain numbers, in h.

// query Item under review: Cc1cccc(-c2nn3c(c2-c2ccnc4ccc(C(N)=O)cc24)CCC3)n1 . Reported half-life?
// result 4.01

---

- Assay Procedure: Noncompartmental plasma pharmacokinetics in phase 1b study
- Format: in vivo, human
- Test Conditions: human, plasma, oral; both galunisertib doses (160 and 300 mg/day) plus sorafenib; read-out: mean t1/2 (converted)
- Procedure: PK analyses were conducted on patients who received at least one dose of galunisertib and had PK samples collected. The PK parameters for galunisertib were calculated by standard noncompartmental methods of analysis using Phoenix™ WinNonlin® 6.4 (Pharsight, A Certara Company; Princeton, NJ, USA). […]
Quantity Measured: half-life

// query Item under review: Cc1cccc(-c2nn3c(c2-c2ccnc4ccc(C(N)=O)cc24)CCC3)n1 [Galunisertib, galunisertib] . Reported half-life?
// result ~4 h

---

- Assay Procedure: Noncompartmental plasma pharmacokinetics in phase 1b study
- Type: in vivo, human
- Test Conditions: human, plasma, po, 300 mg/day, Galunisertib 300 mg/day plus sorafenib, Cycle 1 Day 14, geometric mean (CV%), N 4; read-out: AUC(0-6)
Quantity Measured: AUC(0-t) (ng·h/mL)
Answers are plain numbers, in ng·h/mL.

// query Item under review: Cc1cccc(-c2nn3c(c2-c2ccnc4ccc(C(N)=O)cc24)CCC3)n1 . Reported AUC(0-t)?
// result 5570

---

- Assay Procedure: Noncompartmental plasma pharmacokinetics in phase 1b study
- Format: in vivo, human
- Test Conditions: human, plasma, po; Galunisertib 160 mg/day plus sorafenib, Cycle 1 Day 14, geometric mean (range), n = 3; read-out: t1/2 (converted)
Quantity Measured: half-life

// query Item under review: Cc1cccc(-c2nn3c(c2-c2ccnc4ccc(C(N)=O)cc24)CCC3)n1 . Reported half-life?
// result 4.24 h

---

- Assay Procedure: Noncompartmental plasma pharmacokinetics in phase 1b study
- Format: in vivo, human
- Test Conditions: human, plasma, po; Galunisertib 160 mg/day plus sorafenib, Cycle 1 Day 14, geometric mean (CV%), n = 3; read-out: VZ/F
Quantity Measured: Vd/F (L)
Answers are plain numbers, in L.

// query Item under review: Cc1cccc(-c2nn3c(c2-c2ccnc4ccc(C(N)=O)cc24)CCC3)n1 . Reported Vd/F?
// result 62

---

- Assay Procedure: Noncompartmental plasma pharmacokinetics in phase 1b study
- Format: in vivo, human
- Test Conditions: human, plasma, po, 300 mg/day, Galunisertib 300 mg/day plus sorafenib, Cycle 1 Day 14, geometric mean (CV%), N 4; read-out: AUC(0–24)
Quantity Measured: AUC(0-t)
For clarity, give the value followed by its unit.

// query Item under review: Cc1cccc(-c2nn3c(c2-c2ccnc4ccc(C(N)=O)cc24)CCC3)n1 . Reported AUC(0-t)?
// result 10600 ng·h/mL

---

- Assay Procedure: Noncompartmental plasma pharmacokinetics in phase 1b study
- Assay type: in vivo, human
- Test Conditions: human, plasma, po, 300 mg/day, Galunisertib 300 mg/day plus sorafenib, Cycle 1 Day 1, geometric mean (CV%), N 7; read-out: AUC(0-6)
Quantity Measured: AUC(0-t) (ng·h/mL)
Give bare numbers, in ng·h/mL.

// query Item under review: Cc1cccc(-c2nn3c(c2-c2ccnc4ccc(C(N)=O)cc24)CCC3)n1 . Reported AUC(0-t)?
// result 5040

---

- Assay Procedure: Noncompartmental plasma pharmacokinetics in phase 1b study
- Format: in vivo, human
- Test Conditions: human, plasma, po, 160 mg/day, Galunisertib 160 mg/day plus sorafenib, Cycle 1 Day 14, median (range), N 7; read-out: tmax
Quantity Measured: Tmax (h)
One number for each entry, in h.

// query Item under review: Cc1cccc(-c2nn3c(c2-c2ccnc4ccc(C(N)=O)cc24)CCC3)n1 [Galunisertib, galunisertib] . Reported Tmax?
// result 1.85

---

- Assay Procedure: Noncompartmental plasma pharmacokinetics in phase 1b study
- Type: in vivo, human
- Test Conditions: human, plasma, po, 300 mg/day, Galunisertib 300 mg/day plus sorafenib, Cycle 1 Day 1, median (range), N 7; read-out: tmax
Quantity Measured: Tmax (min)
Give bare numbers, in min.

// query Item under review: Cc1cccc(-c2nn3c(c2-c2ccnc4ccc(C(N)=O)cc24)CCC3)n1 . Reported Tmax?
// result 55.8

---

- Assay Procedure: Noncompartmental plasma pharmacokinetics in phase 1b study
- Type: in vivo, human
- Test Conditions: human, plasma, po, 160 mg/day, Galunisertib 160 mg/day plus sorafenib, Cycle 1 Day 1, geometric mean (CV%), N 7; read-out: AUC(0-6)
Quantity Measured: AUC(0-t) (ng·h/mL)
Give bare numbers, in ng·h/mL.

// query Item under review: Cc1cccc(-c2nn3c(c2-c2ccnc4ccc(C(N)=O)cc24)CCC3)n1 . Reported AUC(0-t)?
// result 2800

---

- Assay Procedure: Noncompartmental plasma pharmacokinetics in phase 1b study
- Type: in vivo, human
- Test Conditions: human, plasma, po; Galunisertib 300 mg/day plus sorafenib, Cycle 1 Day 14, geometric mean (CV%), n = 3; read-out: VZ/F
Quantity Measured: Vd/F (L)
Give bare numbers, in L.

// query Item under review: Cc1cccc(-c2nn3c(c2-c2ccnc4ccc(C(N)=O)cc24)CCC3)n1 . Reported Vd/F?
// result 78.1

---

- Assay Procedure: Noncompartmental plasma pharmacokinetics in phase 1b study
- Format: in vivo, human
- Test Conditions: human, plasma, po, 160 mg/day, Galunisertib 160 mg/day plus sorafenib, Cycle 1 Day 1, median (range), N 7; read-out: tmax
Quantity Measured: Tmax (h)
Give bare numbers, in h.

// query Item under review: Cc1cccc(-c2nn3c(c2-c2ccnc4ccc(C(N)=O)cc24)CCC3)n1 . Reported Tmax?
// result 1.93

---

- Assay Procedure: Noncompartmental plasma pharmacokinetics in phase 1b study
- Format: in vivo, human
- Test Conditions: human, plasma, po; Galunisertib 300 mg/day plus sorafenib, Cycle 1 Day 14, geometric mean (CV%), n = 3
Quantity Measured: AUC(0-inf) (µg·h/mL)
Answers are plain numbers, in µg·h/mL.

// query Item under review: Cc1cccc(-c2nn3c(c2-c2ccnc4ccc(C(N)=O)cc24)CCC3)n1 [Galunisertib, galunisertib] . Reported AUC(0-inf)?
// result 11.1

---

- Assay Procedure: Noncompartmental plasma pharmacokinetics in phase 1b study
- Format: in vivo, human
- Test Conditions: human, plasma, po, 300 mg/day, Galunisertib 300 mg/day plus sorafenib, Cycle 1 Day 1, plasma, geometric mean (CV%), N 7
Quantity Measured: Cmax (ng/mL)
Give bare numbers, in ng/mL.

// query Item under review: Cc1cccc(-c2nn3c(c2-c2ccnc4ccc(C(N)=O)cc24)CCC3)n1 . Reported Cmax?
// result 1900

---

- Assay Procedure: Noncompartmental plasma pharmacokinetics in phase 1b study
- Format: in vivo, human
- Test Conditions: human, plasma, po; Galunisertib 160 mg/day plus sorafenib, Cycle 1 Day 14, geometric mean (CV%), n = 3
Quantity Measured: AUC(0-inf)
For clarity, give the value followed by its unit.

// query Item under review: Cc1cccc(-c2nn3c(c2-c2ccnc4ccc(C(N)=O)cc24)CCC3)n1 . Reported AUC(0-inf)?
// result 7870 ng·h/mL

---

- Assay Procedure: Noncompartmental plasma pharmacokinetics in phase 1b study
- Type: in vivo, human
- Test Conditions: human, plasma, oral, both galunisertib doses (160 and 300 mg/day) plus sorafenib, post-dose; read-out: median tmax
Quantity Measured: Tmax

// query Item under review: Cc1cccc(-c2nn3c(c2-c2ccnc4ccc(C(N)=O)cc24)CCC3)n1 . Reported Tmax?
// result 1 to 2 h

---

- Assay Procedure: Noncompartmental plasma pharmacokinetics in phase 1b study
- Assay type: in vivo, human
- Test Conditions: human, plasma, po, 160 mg/day, Galunisertib 160 mg/day plus sorafenib, Cycle 1 Day 14, geometric mean (CV%), n = 6; read-out: AUC(0–24)
Quantity Measured: AUC(0-t) (ng·h/mL)
One number for each entry, in ng·h/mL.

// query Item under review: Cc1cccc(-c2nn3c(c2-c2ccnc4ccc(C(N)=O)cc24)CCC3)n1 [Galunisertib, galunisertib] . Reported AUC(0-t)?
// result 7170
